molecular target: Apoptosis regulator Bcl-2 (Homo sapiens); experiment: Binding affinity to BCL-2 (unknown origin) assessed as inhibition constant incubated for 60 mins by TR-FRET assay

# Record smiles, Ki
records = [
    ("Cc1nn(C)c(COc2ccc(N3CCN(S(=O)(=O)N(C)C)CC3)cc2)c1-c1cccc2c(CCCOc3cccc4ccccc34)c(C(=O)O)n(CCN3CCOCC3)c12", "132 nM"),
]

----------
The reader will find pKi measurements below, all made with Apoptosis regulator Bcl-2 (Homo sapiens, UniProt P10415).
Sequence (P10415 whole entry): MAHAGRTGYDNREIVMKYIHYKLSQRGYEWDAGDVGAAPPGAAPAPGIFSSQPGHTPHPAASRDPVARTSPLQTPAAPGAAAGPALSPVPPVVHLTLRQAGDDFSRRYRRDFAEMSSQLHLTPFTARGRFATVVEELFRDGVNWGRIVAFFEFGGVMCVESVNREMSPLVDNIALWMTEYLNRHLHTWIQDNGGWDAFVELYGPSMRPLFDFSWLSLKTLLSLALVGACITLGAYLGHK
pKi: −log10 of the molar value.

# Record smiles, Result modifier, pKi
data = [
    ("O=C(O)CCn1cc(-c2cccc(C(F)(F)F)c2)c2ccc(-c3ccccc3)cc21", "=", 5.62),
    ("Cc1cc(OCCCn2ccc3cc(C(=O)O)ccc32)cc(C)c1Cl", "=", 4.89),
    ("Cc1cc(OCCCn2cc(-c3cccc(C(F)(F)F)c3)c3cc(C(=O)O)ccc32)cc(C)c1Cl", "=", 6.25),
    ("COc1ccccc1-c1nccc(COc2ccc3cc2C[C@H](C(=O)O)Oc2ncnc4sc(-c5ccc(F)cc5)c(c24)-c2ccc(c(Cl)c2C)CN(CCN2CCN(C)CC2)CO3)n1", "<", 5.92),
    ("COC1=CC(c2cc3ccccc3[nH]2)=N/C1=C\\c1[nH]c(C)cc1C", "=", 6.70),
]

----------
Property: log10 solubility at 24 h; scope: individual compounds
experiment: Solubility of compound in water at pH 7 measured after 24 hrs by HPLC analysis
Endpoint name: log10 solubility at 24 h (log10 of the value in µM)

# Compound, log10 solubility at 24 h
data = [
    ("CO[C@@H]1/C(F)=C/C[C@H](C)[C@@H](C)S(=O)(=O)NC(=O)c2ccc3c(c2)N(C[C@@H]2CCO[C@H]21)C[C@@]1(CCCc2cc(Cl)ccc21)CO3", 1.05),
    ("COCCOCc1nn(C)c2c1CSCc1cc(n(C)n1)CSc1cc(c3ccc(F)cc3c1)OCCCc1c(C(=O)O)n(CCN3CCOCC3)c3c-2c(Cl)ccc13", 2.74),
    ("COCCOCc1nn(C)c2c1CSCc1cc(n(C)n1)CSc1cc(c3ccc(F)cc3c1)OCCCc1c(C(=O)O)n(C)c3c-2c(Cl)ccc13", 2.76),
    ("COCCOCn1nc(C)c2c1CSCc1cc(n(C)n1)CCc1cc(c3ccc(F)cc3c1)OCCCn1c(C(=O)O)c(C)c3c-2c(Cl)ccc31", 3.50),
    ("COc1n[nH]cc1C(=O)NS1(=O)=NC(=O)c2ccc3c(c2)N(C[C@@H]2CCO[C@H]2[C@H](OC)/C(F)=C/C[C@H](C)C1)C[C@@]1(CCCc2cc(Cl)ccc21)CO3 (some centres not stated)", 2.72),
    ("CO[C@H]1/C(F)=C/C[C@H](C)[C@@H](C)S(=O)(=O)NC(=O)c2ccc3c(c2)N(C[C@@H]2CCO[C@H]21)C[C@@]1(CCCc2cc(Cl)ccc21)CO3", 0.92),
]

----------
target: Induced myeloid leukemia cell differentiation protein Mcl-1 (Homo sapiens, UniProt Q07820); assay: Binding affinity to N-terminal MCL-1 (unknown origin) using 5-FAM peptide as substrate by fluorescence polarization assay
Sequence (Q07820 whole entry): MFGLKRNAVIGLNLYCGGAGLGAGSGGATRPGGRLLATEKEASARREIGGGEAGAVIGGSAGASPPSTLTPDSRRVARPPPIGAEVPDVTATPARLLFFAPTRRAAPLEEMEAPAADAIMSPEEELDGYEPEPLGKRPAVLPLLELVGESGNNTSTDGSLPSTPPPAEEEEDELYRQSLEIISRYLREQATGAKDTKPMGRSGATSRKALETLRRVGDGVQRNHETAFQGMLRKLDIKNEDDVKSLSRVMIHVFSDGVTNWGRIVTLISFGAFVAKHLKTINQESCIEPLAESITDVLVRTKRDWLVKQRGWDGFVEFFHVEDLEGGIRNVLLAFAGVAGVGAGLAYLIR

# Record smiles, Units, Ki
measured = [
    ("Cc1ccc(Oc2ccc(O)c(O)c2)c(-c2ccsc2S(=O)(=O)NCCNC(=O)Nc2cc(C(F)(F)F)cc(C(F)(F)F)c2)c1", "nM", 490),
]

----------
biological target: Bcl-2-like protein 1 (Homo sapiens); experiment: Binding affinity to Bcl-XL (unknown origin) assessed as inhibition constant by fluorescence polarization assay
Property: Ki; scope: individual compounds

# Record smiles, Units, Result modifier, Ki
measured = [
    ("COC1=CC(c2cc3ccccc3[nH]2)=N/C1=C\\c1[nH]c(C)cc1C", "nM", ">", 1000),
    ("CC(C)c1ccccc1Cc1cc(C(=O)Nc2ccc(S(=O)(=O)c3ccccc3C(C)(C)C)cc2)c(O)c(O)c1O", "nM", "=", 290),
]

----------
The reader will find Ki measurements below, all made with Induced myeloid leukemia cell differentiation protein Mcl-1 (Homo sapiens, UniProt Q07820).
Endpoint name: Ki

# Compound, Endpoint name, Meas value
rows = [
    ("Cc1cc(Cl)cc(C)c1OCCCc1c2n(c3c(-c4c(C)nn(C)c4C)c(Cl)ccc13)CCCN(c1cn(C)c3ccc(C(=O)O)cc13)C2=O", "Ki", "< 0.1 nM"),
    ("CC(=O)N1CCN(c2ccc(OCc3nn(C)c(C)c3-c3cccc4c(CCCOc5cccc6ccccc56)c(C(=O)O)n(Cc5cccnc5)c34)cc2)CC1", "Ki", "1 nM"),
    ("Cc1c(Cl)c2c(Cl)c(C)c1-c1c(-c3ccc(F)cc3)sc3ncnc(c13)O[C@@H](C(=O)O)Cc1cc(ccc1OCc1ccnc(-c3ccc(OC[C@H]4COCCO4)cc3)n1)OCC(CN1CCN(C)CC1)O2 (stereo not given in full)", "Ki", "0.01 nM"),
    ("Cc1cc(Cl)cc(C)c1OCCCc1c2n(c3c(-c4c(C)nn(C)c4C)c(Cl)ccc13)[C@H](C)CCN(c1cn(C)c3ccc(C(=O)O)cc13)C2=O", "Ki", "0.097 nM"),
    ("Cc1nn(C)c(C)c1-c1cccc2c(CCCOc3cccc4ccccc34)c(C(=O)O)n(CCN3CCOCC3)c12", "Ki", "1 nM"),
]

----------
biological target: Bcl-2-like protein 1 (Homo sapiens, UniProt Q07817); assay: Binding affinity to BCL-XL (unknown origin) assessed as inhibition constant
Sequence (Q07817 whole entry): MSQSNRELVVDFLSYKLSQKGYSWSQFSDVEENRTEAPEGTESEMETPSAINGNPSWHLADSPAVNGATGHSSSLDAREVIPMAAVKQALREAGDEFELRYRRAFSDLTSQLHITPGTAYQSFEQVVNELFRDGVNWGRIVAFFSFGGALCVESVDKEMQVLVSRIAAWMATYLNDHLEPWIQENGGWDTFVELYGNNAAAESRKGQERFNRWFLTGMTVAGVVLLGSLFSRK

# Record smiles, Ki
records = [
    ("COc1ccccc1-c1nccc(COc2ccc3cc2C[C@H](C(=O)O)Oc2ncnc4sc(-c5ccc(F)cc5)c(c24)-c2ccc(c(Cl)c2C)CN(CCN2CCN(C)CC2)CO3)n1", "> 660 nM"),
]

----------
assay: in vivo; conditions: mouse

# Record smiles, half-life (min)
rows = [
    ("Cc1cc(Cl)cc(C)c1OCCCc1c2n(c3c(-c4c(C)nn(C)c4C)c(Cl)ccc13)CCCN(c1cn(C)c3ccc(C(=O)O)cc13)C2=O", 34.2),
]

----------
target: Apoptosis regulator Bcl-2 (Homo sapiens, UniProt P10415)
pIC50: −log10 of the molar value.
Endpoint name: pIC50

# Molecule, Endpoint name, Meas value
measured = [
    ("Cc1cc2c(C(C)C)c(O)c(O)cc2c(O)c1-c1c(C)cc2c(C(C)C)c(O)c(O)cc2c1O [APOGOSSYPOL]", "pIC50", 5.55),
]

----------
target: Induced myeloid leukemia cell differentiation protein Mcl-1 (Homo sapiens)
Endpoint name: IC50 (nM)

# Record smiles, Endpoint name, Meas value
rows = [
    ("Cc1cc(S(=O)(=O)NC(=O)c2cc(C)c(-c3cccc4c(CCCOc5cccc6ccccc56)c(C(=O)O)nn34)c(C)c2)ccc1N[C@H](CCN(C)C)CSc1ccccc1", "IC50", 8),
]

----------
target: Induced myeloid leukemia cell differentiation protein Mcl-1 (Homo sapiens, UniProt Q07820)
pIC50: −log10 of the molar value.

# Record smiles, pIC50
data = [
    ("O=C(c1ccccc1O)c1[nH]c(Cl)c(Cl)c1-n1c(C(=O)c2ccccc2O)cc(Cl)c1Cl", 5.00),
]

----------
pIC50: −log10 of the molar value.
The reader will find pIC50 measurements below, all made with Bcl-2-like protein 1 (Homo sapiens, UniProt Q07817).

# Record smiles, pIC50
data = [
    ("O=C(O)CSc1ccc(C(=O)c2[nH]c(Cl)c(Cl)c2-n2c(C(=O)c3ccc(SCC(=O)O)cc3O)cc(Cl)c2Cl)c(O)c1", "< 4.00"),
    ("O=C(c1ccccc1O)c1[nH]c(Cl)c(Cl)c1-n1c(C(=O)c2ccccc2O)cc(Cl)c1Cl", "< 4.00"),
    ("CCOP(=O)(OCC)c1ccc(C(=O)c2[nH]c(Cl)c(Cl)c2-n2c(C(=O)c3ccc(P(=O)(OCC)OCC)cc3O)cc(Cl)c2Cl)c(O)c1", "< 4.00"),
    ("O=C(O)Cn1cc(-c2cc(O)c(C(=O)c3[nH]c(Cl)c(Cl)c3-n3c(C(=O)c4cc(Cl)c(-c5cn(CC(=O)O)nn5)cc4O)cc(Cl)c3Cl)cc2Cl)nn1", "< 4.30"),
]

----------
experiment: Clearance in mouse at 1 mg/kg, iv; settings: in vivo
Endpoint name: clearance (mL/min/kg)

# Record smiles, Units, Meas value
data = [
    ("Cc1cc(Cl)cc(C)c1OCCCc1c2n(c3c(-c4c(C)nn(C)c4C)c(Cl)ccc13)CCCN(c1cn(C)c3ccc(C(=O)O)cc13)C2=O", "mL/min/kg", 245),
]

----------
The reader will find IC50 measurements below, all made with Voltage-gated inwardly rectifying potassium channel KCNH2 (Homo sapiens).
Sequence (Q12809 whole entry): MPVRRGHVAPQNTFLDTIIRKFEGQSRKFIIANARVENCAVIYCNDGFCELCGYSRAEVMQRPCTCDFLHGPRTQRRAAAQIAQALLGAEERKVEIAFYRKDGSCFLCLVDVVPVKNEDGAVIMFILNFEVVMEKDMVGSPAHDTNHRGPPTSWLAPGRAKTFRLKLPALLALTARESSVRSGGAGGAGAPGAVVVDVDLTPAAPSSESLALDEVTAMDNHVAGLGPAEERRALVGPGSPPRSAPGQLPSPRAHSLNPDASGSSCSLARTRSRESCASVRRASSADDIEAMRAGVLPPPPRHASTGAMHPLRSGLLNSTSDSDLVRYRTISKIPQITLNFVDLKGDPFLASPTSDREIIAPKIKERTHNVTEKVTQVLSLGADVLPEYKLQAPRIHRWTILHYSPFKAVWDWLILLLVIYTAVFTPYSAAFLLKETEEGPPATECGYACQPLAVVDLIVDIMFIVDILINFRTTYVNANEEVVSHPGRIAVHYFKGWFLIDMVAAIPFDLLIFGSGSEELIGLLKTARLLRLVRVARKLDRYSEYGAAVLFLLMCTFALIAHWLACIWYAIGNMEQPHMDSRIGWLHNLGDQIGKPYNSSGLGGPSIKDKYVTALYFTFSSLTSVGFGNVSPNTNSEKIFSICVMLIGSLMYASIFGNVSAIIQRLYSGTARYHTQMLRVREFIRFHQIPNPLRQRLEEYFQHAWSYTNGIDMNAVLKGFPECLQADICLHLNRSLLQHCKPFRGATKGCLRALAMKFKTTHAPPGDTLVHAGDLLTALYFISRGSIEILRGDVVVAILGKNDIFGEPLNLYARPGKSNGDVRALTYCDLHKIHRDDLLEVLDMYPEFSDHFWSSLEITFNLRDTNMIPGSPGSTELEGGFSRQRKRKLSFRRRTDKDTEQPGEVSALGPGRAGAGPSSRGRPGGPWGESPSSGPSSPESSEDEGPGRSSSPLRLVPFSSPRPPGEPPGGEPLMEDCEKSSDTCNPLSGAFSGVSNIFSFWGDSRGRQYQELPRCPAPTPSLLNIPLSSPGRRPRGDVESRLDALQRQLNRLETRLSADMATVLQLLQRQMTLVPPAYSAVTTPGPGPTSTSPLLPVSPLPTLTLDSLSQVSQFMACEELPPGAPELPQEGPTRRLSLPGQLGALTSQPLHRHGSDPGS

# Molecule, Tested on, IC50
records = [
    ("COCCOCc1nn(C)c2c1CSCc1cc(n(C)n1)CSc1cc(c3ccc(F)cc3c1)OCCCc1c(C(=O)O)n(C)c3c-2c(Cl)ccc13", "Voltage-gated inwardly rectifying potassium channel KCNH2 (Homo sapiens)", "> 30 µM"),
    ("COCCOCc1nn(C)c2c1CSCc1cc(n(C)n1)CSc1cc(c3ccc(F)cc3c1)OCCCc1c(C(=O)O)n(CCN3CCOCC3)c3c-2c(Cl)ccc13", "Voltage-gated inwardly rectifying potassium channel KCNH2 (Homo sapiens)", "> 30 µM"),
    ("CC1(C)CC[C@@H](OC(=O)/C=C/c2ccccc2)[C@]2(C)C(C=O)C(C=O)=C[C@H](O)[C@@]12C (some centres undefined)", "Voltage-gated inwardly rectifying potassium channel KCNH2 (Homo sapiens)", "> 10 µM"),
    ("COCCOCn1nc(C)c2c1CSCc1cc(n(C)n1)CCc1cc(c3ccc(F)cc3c1)OCCCn1c(C(=O)O)c(C)c3c-2c(Cl)ccc31", "Voltage-gated inwardly rectifying potassium channel KCNH2 (Homo sapiens)", "> 30 µM"),
]
